Test system: XIP peptide (Xip251-270)
Assay: small-molecule binders of XIP peptide, primary screen, biochemical, small-molecule microarray, fluorescence 635/667 nm, 0.5 µg/mL protein (AID 1183)
Conditions: small-molecule microarray binding, fluorescence 635 nm; higher = more signal
measuredEndpoint: composite z-score
Reply with the value as a number alone.

See these solved cases before continuing.
>>> measvalue("COc1ccc([Si](C)(C)[C@@H]2[C@@H](CCO)O[C@]3(C(=O)N(Cc4ccc(N(C=O)c5ccccc5)cc4)c4ccccc43)[C@H]2C)cc1")
-0.0404
>>> measvalue("C=C(CCCC)C(=O)CC[C@@H](OC(=O)c1ccccc1-c1ccccc1C(=O)O)c1ccc(OCCO)cc1")
0.602
>>> measvalue("[N-]=[N+]=Nc1ccccc1[C@H]1OC(c2ccc(OCCCO)cc2)=N[C@@]1(CCS(=O)(=O)c1ccccc1)C(N)=O")
0.941
>>> measvalue("COCCOC(=O)N1C(=O)[C@@]2(c3cc(C#Cc4ccc(OC)cc4)ccc31)[C@H](c1ccc(OCCO)cc1)N1[C@H](c3ccccc3)[C@H](c3ccccc3)OC(=O)[C@H]1[C@@H]2C(=O)N1CCN(c2ncccn2)CC1")
0.695

What measured composite z-score goes with C[C@H]1NC(=O)[C@@]23C(=O)N[C@@H](Cc4ccccc4)C2[C@H](C)[C@@]2(C)O[C@H]2C3/C=C/C/C=C\CNC(=O)[C@@H]2CCCN2C1=O (some centres not stated) ? 0.667

What measured composite z-score goes with CNS(=O)(=O)c1ccc(C)cc1 ? -0.259

What measured composite z-score goes with C=CCN1C(=O)[C@]2(O[C@H](CCn3cc([C@H](O)c4ccccc4)nn3)[C@@H]([Si](C)(C)c3ccc(OC)cc3)[C@@H]2C)c2ccccc21 ? -0.579

---

Biological target: Dickkopf-related protein 1 (Homo sapiens)
Test: DKK1 binders on small-molecule microarrays, primary screen, biochemical, small-molecule microarray, 635 nm fluorescence scan (AID 1106);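 note: score merges emission near 667 nm with signal to noise over three replicate slides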
Details: DKK1 binding, higher = more signal
# key: entry, value: composite z-score
Reply with the value as a number alone.

>>> measvalue("COc1cc(C(O)C2C=CC3C(=O)NC(=O)C3N2Nc2ccccn2)cc(OC)c1OC (configuration not stated)")
0.336

What measured composite z-score goes with O=C1C[C@@](C(=O)NCC(F)(F)F)(c2ccc([N+](=O)[O-])cc2)[C@@H](c2ccc(CO)cc2I)N1C1CCCCC1 ? 0.155

What measured composite z-score goes with CCCCCN1CC=CC23O[C@@H]4C=CCCOC(=O)C4[C@H]2C(=O)N(CCCCCO)[C@@H]3C1=O (some centres not stated) ? -0.503

What measured composite z-score goes with C=CCN1C(=O)[C@]2(O[C@H](CCn3cc([C@H](O)c4ccccc4)nn3)[C@@H]([Si](C)(C)c3ccc(OC)cc3)[C@@H]2C)c2cc(N3CCC3=O)ccc21 ? 0.815

---

Test system: Wnt5a (protein binding on small-molecule microarray)
Test: Wnt5a binders on small-molecule microarray, primary screen, biophysical, 635/667 nm fluorescence (AID 1142);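 note: fluorescence read at 667 nm with signal to noise per printed feature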
Settings: 635 nm fluorescence, higher = more signal
# key: entry, value: composite z-score
Reply with the value as a number alone.

See these solved cases before continuing.
>>> measvalue("CC1CC/C=C\\[C@H]2OC34C=CCN(C(C)(C)C)C(=O)[C@H]3N(C(C)CO)C(=O)[C@@H]4C2C(=O)O1 (some centres not stated)")
-0.273
>>> measvalue("COCCOC(=O)N1C(=O)[C@@]2(c3cc(C#CCNC(N)=O)ccc31)[C@H](C(=O)Nc1nc3ccccc3s1)[C@H]1C(=O)O[C@H](c3ccccc3)[C@H](c3ccccc3)N1[C@@H]2c1ccc(OCCO)cc1")
0.341
>>> measvalue("COC(=O)[C@@]1(CCC(=O)OC(C)(C)C)N=C(c2ccc(OCCCO)cc2)O[C@H]1c1ccccc1N=[N+]=[N-]")
0.174
>>> measvalue("CN(C)CCCCCCNC(=O)[C@H]1C[C@H]2C(=O)N[C@@H](CCCCN)C(=O)N2[C@H]1c1cccc(OCCO)c1")
1.73
>>> measvalue("[N-]=[N+]=Nc1ccccc1[C@H]1OC(c2ccc(OCCCO)cc2)=N[C@@]1(CCS(=O)(=O)c1ccccc1)C(N)=O")
0.79

What measured composite z-score goes with O=C1C2C=CC(C(O)c3cc(C(F)(F)F)cc(C(F)(F)F)c3)N(n3cnnc3)C2C(=O)N1Cc1ccccc1 (configuration not stated) ? -0.484

What measured composite z-score goes with C=C(COC)/C(=C/C[C@@H](OC(=O)c1ccncc1)c1ccc(CO)o1)c1cc(C(=O)OC)ccc1OC ? 1.08

---

# key: entry, value: composite z-score
Target: Follistatin (Homo sapiens)
Assay: follistatin binders on small-molecule microarrays, primary screen, biochemical, small-molecule microarray, 635/667 nm fluorescence (AID 1132)
Conditions: FST binding, 635 nm fluorescence, higher = more signal
Reply with the value as a number alone.

See these solved cases before continuing.
>>> measvalue("O=C1OCCC/C=C\\[C@H]2OC34C=CCN(Cc5ccccc5)C(=O)[C@H]3N(CCCO)C(=O)[C@@H]4C12 (stereo partly drawn)")
-1.29
>>> measvalue("C=C[C@@H](COC(=O)OC(C)(C)C)N(Cc1ccc(OC)cc1)S(=O)(=O)c1ccc(Br)cc1")
0.844

What measured composite z-score goes with CC(C)C[C@@H]1NC(=O)[C@@H]2C[C@H](C(=O)O)[C@H](c3cccc(OCCO)c3)N2C1=O ? 0.495

---

# key: entry, value: composite z-score
Test: binders of probe aFSTL3 on microarray, primary screen, stem cell growth factor project, biochemical, small-molecule microarray, fluorescence 635/667 (AID 1064);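 note: measures binding of the biotinylated anti-FSTL3 antibody to printed compounds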
Settings: higher = more signal
Reply with the value as a number alone.

See these solved cases before continuing.
>>> measvalue("COc1ccc(-c2cc3c(c(-c4ccc(Oc5ccccc5)cc4)n2)[Si](C(C)C)(C(C)C)OC3)cn1")
-0.264
>>> measvalue("CCS[C@H]1[C@@H](C(=O)O)[C@H](c2ccc(C)cc2)N(S(=O)(=O)c2ccc(C)cc2)[C@@H]1CC")
-0.21
>>> measvalue("C=CCNC(=O)[C@H]1[C@@H]2C(=O)O[C@@H](c3ccccc3)[C@@H](c3ccccc3)N2[C@@H](c2ccccc2OCCO)[C@]12C(=O)Nc1ccc(C#CCC(C(=O)OC)C(=O)OC)cc12")
0.0775
>>> measvalue("CC(C)N1C(=O)c2ccccc2[C@](C)(C(=O)NCCN2CCOCC2)[C@@H]1c1ccc(CO)cc1")
0.755
>>> measvalue("Cc1ccc(S[C@]2(C(=O)O)CC(=O)N(C(C)C)[C@@H]2c2ccc(CO)cc2I)cc1")
1.83
>>> measvalue("COCCOC(=O)N1C(=O)[C@@]2(c3cc(C#CCCO)ccc31)[C@H](C(N)=O)[C@H]1C(=O)O[C@H](c3ccccc3)[C@H](c3ccccc3)N1[C@@H]2c1ccc(O)cc1")
-0.025
>>> measvalue("COc1ccc(CCNC(=O)[C@@]2(C)c3ccccc3C(=O)N(C(C)C)[C@H]2c2ccc(CO)cc2)cc1")
-0.182
>>> measvalue("CCOC(=O)C[C@H]1[C@H](OC(=O)c2ccc(C(=O)c3ccccc3)cc2)[C@@H](NC(=O)c2ccccc2)c2cc(OCCCO)ccc2N1C(=O)c1ccc2ccccc2n1")
-0.416

Could you now look at the following molecule, please?
What measured composite z-score goes with CCCCCCc1nc(-c2ccc(OC)nc2)cc2c1[Si](C(C)C)(C(C)C)O[C@H]2c1ccccc1 ? -0.16

---

Test: E. coli DRC41 culture turbidity changes, primary screen, E. coli filamentation inducer project, strain DRC41, OD650, 48 h (AID 1152);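 note: E. coli MC1000 strain DRC41 lacking acrAB efflux pump and sulA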
Conditions: E. coli DRC41 (acrAB sulA), higher = more signal, called active from +8 up or from −8 down
z-score below -0.5 gives -1; z-score at or above it gives 1.

>>> classlabel("C=C(C)[C@@H]1CC=C(C(O)C2C=CC3C(=O)N(c4ccccc4)C(=O)C3N2Nc2ccccc2)CC1 (stereo partly drawn)")
-1
>>> classlabel("CCOC(=O)C[C@H]1[C@H](OC(=O)c2ccc(-c3ccccc3)cc2)[C@@H](NC(=O)Cc2ccc(OC)cc2)c2cc(OCCCO)ccc2N1C(=O)c1ccccc1")
-1
>>> classlabel("CCCCCN1CC=CC23O[C@@H]4C=CCCOC(=O)C4[C@H]2C(=O)N(CCCCCO)[C@@H]3C1=O (stereo partly drawn)")
1
>>> classlabel("O=C1O[C@H](c2ccccc2)[C@H](c2ccccc2)N2[C@H]1[C@@H](C(=O)N1CCCCCCC1)[C@]1(C(=O)Nc3ccc(C#CC4=CCCCC4)cc31)[C@H]2c1ccc(OCCO)cc1")
1
>>> classlabel("CCOC(=O)C[C@H]1[C@H](OC(=O)c2ccc(C(=O)c3ccccc3)cc2)[C@@H](NC(=O)c2ccc3ccccc3n2)c2cc(OCCCO)ccc2N1C(=O)c1ccccc1")
-1

Say whether CC(CO)N1C(=O)[C@@H]2C3C(=O)OCCC/C=C\[C@H]3OC23C=CCN(C(C)(C)C)C(=O)[C@@H]13 (stereo partly drawn) shows z-score of -0.5 or more. 1

Say whether C=CCN1C(=O)[C@]2(O[C@H](CCn3cc([C@H](O)c4ccccc4)nn3)[C@@H]([Si](C)(C)c3ccc(OC)cc3)[C@@H]2C)c2ccccc21 shows z-score of -0.5 or more. -1

Say whether O=C1C2C=CC(C(O)CCc3ccccc3)N(Nc3ccccc3F)C2C(=O)N1c1ccccc1 (stereo not drawn) shows z-score of -0.5 or more. 1

Say whether CCC[C@@H]1C[C@@]1(CCC)[C@@H](NS(=O)(=O)c1cccc2cccnc12)c1ccc(Cl)cc1 shows z-score of -0.5 or more. -1

Say whether COC(=O)[C@H](Cc1ccccc1)N1CC2=C[C@@H](C3CC3)n3c(=O)n(C)c(=O)n3[C@H]2[C@@H]1[C@@H](O)Cc1ccccc1 shows z-score of -0.5 or more. -1

Say whether COC(=O)C(CC#Cc1ccc2c(c1)[C@]1(C(=O)N2)[C@H](C(=O)Nc2nc3ccccc3s2)[C@H]2C(=O)O[C@H](c3ccccc3)[C@H](c3ccccc3)N2[C@@H]1c1ccccc1OCCO)C(=O)OC shows z-score of -0.5 or more. -1

Say whether COc1cc2c(cc1OC)CN(C(=O)[C@@H]1[C@H]3C(=O)O[C@H](c4ccccc4)[C@H](c4ccccc4)N3[C@H](c3ccccc3OCCO)[C@@]13C(=O)Nc1ccc(C#CCCO)cc13)CC2 shows z-score of -0.5 or more. 1

Say whether CC(=O)NCCCC[C@@H]1NC(=O)[C@@H]2C[C@H](C(=O)NCCCCCNC(=O)CS)[C@H](c3cccc(OCCO)c3)N2C1=O shows z-score of -0.5 or more. 1
